Test system: NCI-H522
Test: NCI tumour cell line growth inhibition, 48 h
Active and inactive are the calls of the source. Rule as the data show it: active = GI50 up to about 1.1 µM and inactive = higher.
Your reply should match one of these outcome classes. active, inactive

compound=NN/C(Cc1ccccc1)=N/NC(N)=S answer_label=inactive
compound=CC(CCC#N)(CCC#N)C(=O)CC(O)(C(F)(F)F)C(F)(F)F answer_label=inactive
compound=CCCCCCSCC/C(C)=N\OC answer_label=inactive
compound=O=c1oc2ccccc2c(-c2ccc(O)cc2)c1Oc1ccc(Cl)cc1 answer_label=inactive
compound=CC(=O)c1ccc(Oc2ccc(/C(C)=N\N=C(N)N)cc2)cc1 answer_label=inactive

Give the logged outcome of this assay for the following compound: O=C1C(Cl)=C(Cl)C(=O)C2=C1C1c3ccccc3C2c2ccccc21
inactive

And then S=C(N/N=C/c1ccccc1)NC1CC(c2ccccc2)Oc2ccccc21 (stereo unspecified) , what is it?
inactive

CC1=CC(C)C/C=C/C2C3OC3(C)C(C)C3C(Cc4c[nH]c5ccccc45)NC(=O)C23C(=O)C=CC(=O)C1O (stereo unspecified) , same question.
inactive

Consider next the compound N/N=C(/C(=O)Nc1cccc(Cl)c1)C(C(=O)c1ccc(O)cc1O)C1OC(=O)c2ccccc21 (stereo unspecified) in the same way.
inactive

Next record, please: COc1ccc(C2Oc3c(cccc3OC)C=C2[N+](=O)[O-])cc1 (stereo unspecified)
inactive

----------
System: CAKI-1
Test: NCI tumour cell line growth inhibition, 48 h
The source made the active and inactive calls. Cut-off read from the data, not from the text of the source: active = GI50 up to about 1.1 µM and inactive = higher.
Consider the following molecules and their measured GI50 readings.

Below, each entry is followed by its recorded GI50 result.
molecule=CCCCc1ccc(-n2c(C)c(COC(=O)NC)c(COC(=O)NC)c2C)cc1 readout_kind=GI50 obs_value="2.86 µM (inactive)"
molecule=COc1cc(/C=C/C(=N\NC(=O)c2ccccc2)c2sc(Nc3ccc(Cl)c(Cl)c3)nc2C)ccc1O readout_kind=GI50 obs_value="36.4 µM (inactive)"
molecule=c1ccc2c(c1)cc1n2CCc2c-1[nH]c1ccccc21 readout_kind=GI50 obs_value="> 10 µM (inactive)"

Here is the next item to consider.
Fill in the recorded GI50 for this molecule, with CAKI-1 as test system: c1ccc(C2C3=C(CCCC3)Nc3nnnn32)cc1 (stereo not given)
> 100 µM (inactive)

----------
Tested on: OVCAR-5
Assay: NCI tumour cell line growth inhibition, 48 h
The source made the active and inactive calls. No stated cut-off is given here; in the data, active = GI50 up to about 1.1 µM and inactive = higher.
Readout Kind: GI50

For orientation, consider the following solved cases.
compound="CC(=O)Nc1ccc2c3c(cc(O)c2c1)N(C(=O)CCCCC(=O)N1CC(CCl)c2c1cc(O)c1cc(NC(C)=O)ccc21)CC3CCl (stereo not drawn)" obs_value="1.37 µM (inactive)"
compound="O=C1O[C@H]2[C@H](OC(=O)c3cc(O)c(O)c(O)c3)[C@@H](OC(=O)c3cc(O)c(O)c4c3[C@@H]3C1=CC(=O)C(O)(O)C3(O)O4)[C@H](OC(=O)c1cc(O)c(O)c(O)c1)O[C@@H]2COC(=O)c1cc(O)c(O)c(O)c1 (stereo partly drawn)" obs_value="65.6 µM (inactive)"
compound=Cc1cc2c(C)n(Cc3ccc(Cl)cc3Cl)nc2c(C(=O)O)c1C obs_value="> 100 µM (inactive)"
compound="CCCC(=O)NC(Nc1ccc(S(=O)(=O)Nc2cc(C)on2)cc1)(C(=O)OCC)C(F)(F)F (stereo not drawn)" obs_value="> 100 µM (inactive)"
compound="C[C@@H](CCO)OC1OC(COC(=O)C(C)(C)C)C(OC(=O)C(C)(C)C)C(OC(=O)C(C)(C)C)C1OC(=O)C(C)(C)C (stereo partly drawn)" obs_value="> 100 µM (inactive)"
compound=NCCOCCOCC(=O)O obs_value="> 100 µM (inactive)"
compound="Cc1ccccc1OC(C)C(=O)NN1C(=O)CC(=O)NC1=S (stereo not drawn)" obs_value="> 100 µM (inactive)"

Proceeding to the next compound to report its GI50.
Find GI50 (OVCAR-5) for the entry CC(=O)c1ccc(Oc2ccc(/C(C)=N\N=C(N)N)cc2)cc1
4.68 µM (inactive)
